# Tested on: HPAC cells
# MEASUREMENT NOTES: HPAC 3D proliferation assay (CellTiter-Glo)
# Format: cell-based
# CONDITION LABEL: Homo sapiens, 168 h, 3D culture, 7 days, read-out: HPAC CTG IC50
pIC50: −log10 of the molar value.
// reported pIC50 for each item listed

SMILES STRUCTURE: C#Cc1cccc2cc(N)cc(-c3nc4c5c(nc(OC[C@@]67CCCN6C[C@H](F)C7)nc5c3F)N([C@H](C)c3nccnc3N)CCO4)c12
pIC50: 8.35
//
SMILES STRUCTURE: Cc1nc(N)cc(-c2nc3c4c(nc(OC[C@@]56CCCN5C[C@H](F)C6)nc4c2Cl)N([C@H](C)c2cccnc2N)CCO3)c1C(F)(F)F
pIC50: 6.80
//
SMILES STRUCTURE: C[C@H](c1cccnc1N)N1CCOc2nc(-c3cc(N)c(F)c(F)c3C(F)(F)F)c(F)c3nc(OC[C@@]45CCCN4C[C@H](F)C5)nc1c23
pIC50: 7.85

The measurements presented in this section are drawn from patent US20240228512A1.
